# Species on record: Homo sapiens
# METHOD_DESCRIPTION: Selectivity for human adenosine A1 receptor over human adenosine A2A receptor
Rule: t for Ratio not less than 700, f for anything less.

Past entries and their recorded results:
{"columns": ["CHEMICAL_SMILES", "LABEL_CLASS"],
 "data": [
  ["COCCOc1ccc(N2CCN(CCOc3cc4nc(-c5ccco5)nn4c(N)n3)CC2)cc1", "f"],
  ["COCCOc1ccc(N2CCN(CCSc3cc4nc(-c5ccco5)nn4c(N)n3)CC2)cc1", "t"],
  ["Nc1nc(NCCN2CCN(c3ccc(F)cc3F)CC2)cc2nc(-c3ccco3)nn12", "f"],
  ["CCN(CCN1CCN(c2ccc(OCCOC)cc2)CC1)c1cc2nc(-c3ccco3)nn2c(N)n1", "f"]
]}

Problem: Check if Ratio >= 700 (inclusive). Item: COc1ccc(CN(C)c2cc3nc(-c4ccco4)nn3c(N)n2)cc1
Solution: f

Problem: Check if Ratio >= 700 (inclusive). Item: COCCN(CCN1CCN(c2ccc(F)cc2F)CC1)c1cc2nc(-c3ccco3)nn2c(N)n1
Solution: t

* * *

inhibition in vivo at 1 mg/kg overview
# Test system: Rattus norvegicus
# METHOD_DESCRIPTION: Inhibition of haloperidol-induced catalepsy in rat at 1 mg/kg, po after 4 hrs
# Type: functional
Return type: number; implicit unit %.

// below: answered molecules
{"columns": ["CHEMICAL_SMILES", "UNITS_SYMBOL", "inhibition in vivo at 1 mg/kg"],
 "data": [
  ["Nc1nc(SCCN2CCN(c3ccc(F)cc3F)CC2)cc2nc(-c3ccco3)nn12", "%", 5],
  ["COCCOc1ccc(N2CCN(CCn3ncc4c3nc(N)n3nc(-c5ccco5)nc43)CC2)cc1", "%", 70],
  ["Nc1nc2c(cnn2CCN2CCN(c3ccc(F)cc3F)CC2)c2nc(-c3ccco3)nn12", "%", 80],
  ["COCCOc1ccc(N2CCN(CCOc3cc4nc(-c5ccco5)nn4c(N)n3)CC2)cc1", "%", 25]
]}

// moving on: another record for inhibition in vivo at 1 mg/kg
Problem: Would you please give the reported inhibition in vivo at 1 mg/kg of Nc1nc(N(CCN2CCN(c3ccc(F)cc3F)CC2)CC2CC2)cc2nc(-c3ccco3)nn12 with Rattus norvegicus?
Solution: 34

* * *

# Tested on: Rattus norvegicus
# METHOD_DESCRIPTION: Inhibition of haloperidol-induced catalepsy in rat at 3 mg/kg, po after 1 hr
# Format: functional
Rule: y for inhibition in vivo at 3 mg/kg not less than 60%, n for anything less.

Past entries and their recorded results:
{"columns": ["CHEMICAL_SMILES", "LABEL_CLASS"],
 "data": [
  ["Nc1nc(SCCN2CCN(c3ccc(F)cc3F)CC2)cc2nc(-c3ccco3)nn12", "n"],
  ["COCCOc1ccc(N2CCN(CCN(CC3CC3)c3cc4nc(-c5ccco5)nn4c(N)n3)CC2)cc1", "y"],
  ["COCCN(CCN1CCN(c2ccc(F)cc2F)CC1)c1cc2nc(-c3ccco3)nn2c(N)n1", "n"]
]}

Problem: Check if inhibition in vivo at 3 mg/kg >= 60% (inclusive). Item: COCCOc1ccc(N2CCN(CCSc3cc4nc(-c5ccco5)nn4c(N)n3)CC2)cc1
Solution: y

Problem: Check if inhibition in vivo at 3 mg/kg >= 60% (inclusive). Item: CN(CCN1CCN(c2ccc(F)cc2F)CC1)c1cc2nc(-c3cccc(C#N)c3)nn2c(N)n1
Solution: n

* * *

# METHOD_DESCRIPTION: AUC in rat plasma at 3 mg/kg, po
# Assay type: ADME, organism-based
# Design: dose 3 mg/kg, route oral
REPORTED_ENDPOINT: AUC (ng·h/mL)
Return type: number; implicit unit ng·h/mL.

// below: answered compounds
{"columns": ["CHEMICAL_SMILES", "AUC [ng·h/mL]"],
 "data": [
  ["Nc1nc(N(CCN2CCN(c3ccc(F)cc3F)CC2)CC2CC2)cc2nc(-c3ccco3)nn12", 17],
  ["COCCOc1ccc(N2CCN(CCN(C)c3cc4nc(-c5cccc(C#N)c5)nn4c(N)n3)CC2)cc1", 546],
  ["Nc1nc(SCCN2CCN(c3ccc(F)cc3F)CC2)cc2nc(-c3ccco3)nn12", 229],
  ["Nc1nc(OCCN2CCN(c3ccc(F)cc3F)CC2)cc2nc(-c3ccco3)nn12", 187],
  ["COCCOc1ccc(N2CCN(CCOc3cc4nc(-c5ccc(Cl)o5)nn4c(N)n3)CC2)cc1", 6],
  ["CN(CCN1CCN(c2ccc(F)cc2F)CC1)c1cc2nc(-c3ccco3)nn2c(N)n1", 53],
  ["CCN(CCN1CCN(c2ccc(OCCOC)cc2)CC1)c1cc2nc(-c3ccco3)nn2c(N)n1", 230],
  ["COCCOc1ccc(N2CCN(CCOc3cc4nc(-c5ccco5)nn4c(N)n3)CC2)cc1", 943]
]}

Problem: Identify measured AUC associated with COCCOc1ccc(N2CCN(CCN(CC3CC3)c3cc4nc(-c5ccco5)nn4c(N)n3)CC2)cc1
Solution: 245

Problem: Identify measured AUC associated with CN(CCN1CCN(c2ccc(F)cc2F)CC1)c1cc2nc(-c3cccc(C#N)c3)nn2c(N)n1
Solution: 1300

Problem: Identify measured AUC associated with COCCOc1ccc(N2CCN(CCSc3cc4nc(-c5ccco5)nn4c(N)n3)CC2)cc1
Solution: 910

Problem: Identify measured AUC associated with CCN(CCN1CCN(c2ccc(F)cc2F)CC1)c1cc2nc(-c3ccco3)nn2c(N)n1
Solution: 50

Problem: Identify measured AUC associated with COCCOc1ccc(N2CCN(CCN(C)c3cc4nc(-c5ccco5)nn4c(N)n3)CC2)cc1
Solution: 521

Problem: Identify measured AUC associated with COCCOc1ccc(N2CCN(CCN(CCOC)c3cc4nc(-c5ccco5)nn4c(N)n3)CC2)cc1
Solution: 355

Problem: Identify measured AUC associated with COCCOc1ccc(N2CCN(CCNc3cc4nc(-c5ccco5)nn4c(N)n3)CC2)cc1
Solution: 103

* * *

# Organism: Homo sapiens
# METHOD_DESCRIPTION: Selectivity for human adenosine A1 receptor over human adenosine A2A receptor
Ratio overview
Respond using a number only.

// below: answered compounds
{"columns": ["CHEMICAL_SMILES", "Ratio"],
 "data": [
  ["COc1ccc(CCCc2cc3nc(-c4ccco4)nn3c(N)n2)cc1", 31],
  ["COCCOc1ccc(N2CCN(CCN(CCOC)c3cc4nc(-c5ccco5)nn4c(N)n3)CC2)cc1", 338],
  ["COCCOc1ccc(N2CCN(CCN(CC3CC3)c3cc4nc(-c5ccco5)nn4c(N)n3)CC2)cc1", 234]
]}

Problem: Identify measured Ratio associated with COc1ccc(CCN(C)c2cc3nc(-c4ccco4)nn3c(N)n2)cc1
Solution: 473

Problem: Identify measured Ratio associated with CN(CCN1CCN(c2ccc(F)cc2F)CC1)c1cc2nc(-c3ccco3)nn2c(N)n1
Solution: 1580

* * *

# Species on record: Homo sapiens
# METHOD_DESCRIPTION: Selectivity for human adenosine A1 receptor over human adenosine A2A receptor
REPORTED_ENDPOINT: Ratio
Respond using a number only.

// below: answered molecules
{"columns": ["CHEMICAL_SMILES", "Ratio"],
 "data": [
  ["COc1ccc(CCCN(C)c2cc3nc(-c4ccco4)nn3c(N)n2)cc1", 76],
  ["CN(CCN1CCN(c2ccc(F)cc2F)CC1)c1cc2nc(-c3cnco3)nn2c(N)n1", 7000]
]}

Problem: Identify measured Ratio associated with COc1ccc(CCOc2cc3nc(-c4ccco4)nn3c(N)n2)cc1
Solution: 58

Problem: Identify measured Ratio associated with Nc1nc(OCCN2CCN(c3ccc(F)cc3F)CC2)cc2nc(-c3ccco3)nn12
Solution: 275

Problem: Identify measured Ratio associated with COCCOc1ccc(N2CCN(CCNc3cc4nc(-c5ccco5)nn4c(N)n3)CC2)cc1
Solution: 145

Problem: Identify measured Ratio associated with COc1ccc(CCSc2cc3nc(-c4ccco4)nn3c(N)n2)cc1
Solution: 58

Problem: Identify measured Ratio associated with CN(CCN1CCN(c2ccc(F)cc2F)CC1)c1cc2nc(-c3cccc(C#N)c3)nn2c(N)n1
Solution: 620

Problem: Identify measured Ratio associated with Nc1nc(SCCN2CCN(c3ccc(F)cc3F)CC2)cc2nc(-c3ccco3)nn12
Solution: 365

Problem: Identify measured Ratio associated with COCCOc1ccc(N2CCN(CCN(C)c3cc4nc(-c5ccccc5)nn4c(N)n3)CC2)cc1
Solution: 56

Problem: Identify measured Ratio associated with COc1ccc(CCNc2cc3nc(-c4ccco4)nn3c(N)n2)cc1
Solution: 20
